FYI, the data here is from ChEMBL document CHEMBL4819035.

- system_under_test: Glycine receptor subunit alpha-1 (Homo sapiens, UniProt P23415)
- Sequence (P23415 whole entry): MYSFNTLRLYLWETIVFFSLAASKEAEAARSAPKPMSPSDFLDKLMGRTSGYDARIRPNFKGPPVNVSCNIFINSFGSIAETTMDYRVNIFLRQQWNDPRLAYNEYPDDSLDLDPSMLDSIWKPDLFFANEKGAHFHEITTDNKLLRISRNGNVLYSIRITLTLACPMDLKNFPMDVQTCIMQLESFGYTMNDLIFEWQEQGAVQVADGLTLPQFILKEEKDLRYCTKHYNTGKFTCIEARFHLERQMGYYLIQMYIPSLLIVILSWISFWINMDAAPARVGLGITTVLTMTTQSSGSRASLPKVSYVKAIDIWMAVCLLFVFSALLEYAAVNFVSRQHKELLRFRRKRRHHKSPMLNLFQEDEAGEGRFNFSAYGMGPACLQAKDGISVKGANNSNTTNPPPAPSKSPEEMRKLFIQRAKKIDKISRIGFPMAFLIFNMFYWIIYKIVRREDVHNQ
- test_details: Antagonist activity at human glycine receptor subunit alpha-1 expressed in human tsA201 cells assessed as reduction in glycine-induced response incubated for 30 mins by fluorescence-based FLIPR membrane potential blue assay
- Type: cell-based
- test_settings: read-out: IC50
measured_endpoint: IC50 (µM)
Lab book: enter the figure in µM, no units written.

chemical_smiles	IC50 / µM
O=C(CCCC(=O)Nc1ccc2c(c1)[C@@]13CCN4CC5=CCO[C@H]6CC(=O)N2[C@H]1[C@H]6[C@H]5C[C@H]43)Nc1ccc2c(c1)[C@@]13CCN4CC5=CCO[C@H]6CC(=O)N2[C@H]1[C@H]6[C@H]5C[C@H]43	10

stdin: Bench note: what IC50 did O=C(CCCCC(=O)Nc1ccc2c(c1)[C@@]13CCN4CC5=CCO[C@H]6CC(=O)N2[C@H]1[C@H]6[C@H]5C[C@H]43)Nc1ccc2c(c1)[C@@]13CCN4CC5=CCO[C@H]6CC(=O)N2[C@H]1[C@H]6[C@H]5C[C@H]43 show?
stdout: 6.1

* * *

- system_under_test: Glycine receptor subunit alpha-1 (Homo sapiens)
- test_details: Antagonist activity at human glycine receptor subunit alpha-1 assessed as inhibition of glycine-induced current measured at the onset of compound application by patch-clamp assay
measured_endpoint: pIC50
pIC50 here is simply -log10 of the concentration when that concentration is written in mol/L.

molecule	system_under_test	measured_endpoint	reading
O=C1C[C@@H]2OCC=C3CN4CC[C@]56c7ccccc7N1[C@H]5[C@H]2[C@H]3C[C@H]46 [STRYCHNINE]	Glycine receptor subunit alpha-1 (Homo sapiens)	pIC50	6.87

Attention now turns to another entry.
stdin: For the record O=C(CCOCCOCCOCCOCCOCCOCCOCCOCCOCCOCCOCCOCCC(=O)NCCCCCCCCCCC(=O)Nc1ccc2c(c1)[C@@]13CCN4CC5=CCO[C@H]6CC(=O)N2[C@H]1[C@H]6[C@H]5C[C@H]43)NCCCCCCCCCCC(=O)Nc1ccc2c(c1)[C@@]13CCN4CC5=CCO[C@H]6CC(=O)N2[C@H]1[C@H]6[C@H]5C[C@H]43 , what value of pIC50 is listed for Glycine receptor subunit alpha-1 (Homo sapiens)?
stdout: 5.48

* * *

# pIC50 per entry
- system_under_test: Glycine receptor subunit alpha-1 (Homo sapiens, UniProt P23415)
- test_details: Antagonist activity at human glycine receptor subunit alpha-1 expressed in HEK293 cells assessed as reduction in glycine-induced currents by whole-cell patch-clamp assay
- Type: cell-based
pIC50 here is simply -log10 of the concentration when that concentration is written in mol/L.

Worked cases, pIC50 given:
chemical_smiles	pIC50
O=C(CCCCCC(=O)NCC(=O)Nc1ccc2c(c1)[C@@]13CCN4CC5=CCO[C@H]6CC(=O)N2[C@H]1[C@H]6[C@H]5C[C@H]43)NCC(=O)Nc1ccc2c(c1)[C@@]13CCN4CC5=CCO[C@H]6CC(=O)N2[C@H]1[C@H]6[C@H]5C[C@H]43	6.89
O=C(CCCCCCCCC(=O)Nc1ccc2c(c1)[C@@]13CCN4CC5=CCO[C@H]6CC(=O)N2[C@H]1[C@H]6[C@H]5C[C@H]43)Nc1ccc2c(c1)[C@@]13CCN4CC5=CCO[C@H]6CC(=O)N2[C@H]1[C@H]6[C@H]5C[C@H]43	5.82
CCCCCCCC(=O)NCC(=O)Nc1ccc2c(c1)[C@@]13CCN4CC5=CCO[C@H]6CC(=O)N2[C@H]1[C@H]6[C@H]5C[C@H]43	7.05
O=C(CCCCCCC(=O)Nc1ccc2c(c1)[C@@]13CCN4CC5=CCO[C@H]6CC(=O)N2[C@H]1[C@H]6[C@H]5C[C@H]43)Nc1ccc2c(c1)[C@@]13CCN4CC5=CCO[C@H]6CC(=O)N2[C@H]1[C@H]6[C@H]5C[C@H]43	5.96

Attention now turns to another entry.
stdin: Bench note: what pIC50 did CCCCCCCC(=O)NCCCCCCCCCCC(=O)Nc1ccc2c(c1)[C@@]13CCN4CC5=CCO[C@H]6CC(=O)N2[C@H]1[C@H]6[C@H]5C[C@H]43 show?
stdout: 5.77
